target: TTBK2 (Homo sapiens, UniProt Q6IQ55); construct: purchased Eurofins; test: Eurofins enzymatic radiometric kinase assay; assay type: biochemical; details: ATP at Km, dose–response 9-pt curve
Sequence (Q6IQ55 whole entry): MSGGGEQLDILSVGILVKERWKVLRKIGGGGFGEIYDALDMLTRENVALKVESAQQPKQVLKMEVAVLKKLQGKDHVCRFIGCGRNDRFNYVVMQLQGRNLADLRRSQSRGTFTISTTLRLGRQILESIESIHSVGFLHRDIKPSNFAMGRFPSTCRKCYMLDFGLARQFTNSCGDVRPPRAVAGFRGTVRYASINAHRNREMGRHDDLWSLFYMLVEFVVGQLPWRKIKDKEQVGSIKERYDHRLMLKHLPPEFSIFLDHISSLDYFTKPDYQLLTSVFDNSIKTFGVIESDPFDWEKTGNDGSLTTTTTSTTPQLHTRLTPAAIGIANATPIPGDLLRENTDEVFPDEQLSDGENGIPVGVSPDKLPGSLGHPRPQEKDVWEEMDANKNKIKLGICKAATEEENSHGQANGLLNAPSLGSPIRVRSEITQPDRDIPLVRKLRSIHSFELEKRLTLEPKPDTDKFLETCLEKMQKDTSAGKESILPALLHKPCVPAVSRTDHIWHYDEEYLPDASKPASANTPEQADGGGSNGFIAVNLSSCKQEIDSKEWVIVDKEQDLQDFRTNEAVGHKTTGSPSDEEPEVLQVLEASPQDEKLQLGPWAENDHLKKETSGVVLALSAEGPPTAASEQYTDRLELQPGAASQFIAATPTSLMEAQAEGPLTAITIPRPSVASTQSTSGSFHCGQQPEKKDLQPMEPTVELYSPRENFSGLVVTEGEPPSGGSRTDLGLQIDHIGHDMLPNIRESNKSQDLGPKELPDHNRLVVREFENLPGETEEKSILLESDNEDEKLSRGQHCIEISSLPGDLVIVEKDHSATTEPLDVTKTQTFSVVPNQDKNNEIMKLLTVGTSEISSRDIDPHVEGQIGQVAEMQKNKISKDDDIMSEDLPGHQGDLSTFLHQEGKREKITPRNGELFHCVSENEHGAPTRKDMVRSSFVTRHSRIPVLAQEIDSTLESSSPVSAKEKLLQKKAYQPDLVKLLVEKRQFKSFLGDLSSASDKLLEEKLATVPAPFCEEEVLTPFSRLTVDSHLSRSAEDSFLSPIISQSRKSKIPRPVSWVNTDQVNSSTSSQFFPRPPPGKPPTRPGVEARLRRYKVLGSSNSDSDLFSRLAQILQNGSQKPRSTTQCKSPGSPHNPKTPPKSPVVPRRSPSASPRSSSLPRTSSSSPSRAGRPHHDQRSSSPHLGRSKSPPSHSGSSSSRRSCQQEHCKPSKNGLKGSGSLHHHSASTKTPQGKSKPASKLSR
Measured IC50, listed per entry.
Enter the number, and then the unit.

Can you look up the measured IC50 of CC(C)(O)C#Cc1ccc2[nH]cc(-c3ccnc(N)n3)c2c1 for me? 384 nM

IC50 for CC(C)(O)C#Cc1ccc2[nH]c3c(c2c1)-c1nc(N)ncc1CC3 ? 1210 nM

###

Target: TSSK3 (Homo sapiens, UniProt Q96PN8)
Construct: purchased Eurofins
Sequence (Q96PN8 1-268): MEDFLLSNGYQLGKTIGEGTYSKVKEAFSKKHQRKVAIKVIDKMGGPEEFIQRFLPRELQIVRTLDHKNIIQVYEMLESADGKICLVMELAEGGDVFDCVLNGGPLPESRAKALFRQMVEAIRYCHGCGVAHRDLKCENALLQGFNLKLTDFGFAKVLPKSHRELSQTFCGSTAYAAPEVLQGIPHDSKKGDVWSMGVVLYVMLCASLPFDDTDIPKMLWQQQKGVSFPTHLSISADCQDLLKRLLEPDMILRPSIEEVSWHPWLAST
Experiment: Eurofins enzymatic radiometric kinase assay
Assay type: biochemical
Conditions: ATP at Km, duplicate
Measured TSSK3 PoC at 1 μM, listed per entry for reference.
Your answer should be a plain number; it is taken to be in PoC.

Consider the worked cases shown below.
{"molecule": "COC(C)(C)C#Cc1ccc2[nH]c3c(c2c1)-c1nc(N)ncc1CCC3 [Compound 11]", "units": "PoC", "TSSK3 PoC at 1 μM": 75}
{"molecule": "CC(C)(O)C#Cc1ccc2[nH]c3c(c2c1)-c1nc(N)ncc1CCC3 [AMG28, reference compound]", "units": "PoC", "TSSK3 PoC at 1 μM": 1}
{"molecule": "CC(C)(O)C#Cc1ccc2[nH]c3c(c2c1)-c1nc(N)ncc1CC3 [Compound 1]", "units": "PoC", "TSSK3 PoC at 1 μM": 11}
{"molecule": "CC(C)(O)C#Cc1ccc2[nH]cc(-c3ccnc(N)n3)c2c1 [Compound 3]", "units": "PoC", "TSSK3 PoC at 1 μM": 5}

We next turn to a different molecule, shown below.
Which TSSK3 PoC at 1 μM value belongs to CC(C)(O)C#Cc1ccc2[nH]c3c(c2c1)-c1nc(N)ncc1CCCC3 [Compound 2] ? 120

Where do these numbers come from? They come from paper PMC10104807.
